target: T1, mouse serum albumin (mouse, UniProt P07724 25-608); test: Octet HTX (ForteBio), HCAb on AHC sensor, 1:1 fit
T1 construct: also called MSA
T1 sequence (P07724 25-608 limits assumed): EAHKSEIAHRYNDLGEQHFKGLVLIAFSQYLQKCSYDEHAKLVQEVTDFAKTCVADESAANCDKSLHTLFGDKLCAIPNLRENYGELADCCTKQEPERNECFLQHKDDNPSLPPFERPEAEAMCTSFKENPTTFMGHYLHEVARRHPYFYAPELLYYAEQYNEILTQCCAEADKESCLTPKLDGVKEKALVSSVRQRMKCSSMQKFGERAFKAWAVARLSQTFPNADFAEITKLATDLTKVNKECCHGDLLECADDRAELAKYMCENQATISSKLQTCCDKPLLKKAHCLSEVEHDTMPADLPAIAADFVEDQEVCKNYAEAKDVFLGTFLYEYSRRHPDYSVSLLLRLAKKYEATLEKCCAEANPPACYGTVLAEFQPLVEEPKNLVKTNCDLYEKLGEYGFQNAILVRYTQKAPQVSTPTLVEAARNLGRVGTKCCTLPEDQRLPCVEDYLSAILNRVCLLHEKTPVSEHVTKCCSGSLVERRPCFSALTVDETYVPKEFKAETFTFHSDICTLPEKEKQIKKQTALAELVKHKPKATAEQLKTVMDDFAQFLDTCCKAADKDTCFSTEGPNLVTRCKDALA
Below, each entry is listed alongside its reported Kd.
Numbers only here, please. The scale is nM.

Example entries and their recorded answers appear below.
CNG-HSA-107 (VHH) VHH: KVQLLESGGGLVQPGGSLRLSCAASGFTFSSFGMSWVRQAPGKGLEWVSSISGSGSDTLYADSVRGRFTISRDNSKNTLYLQMNSLRAEDTAVYYCSIGGSLIRSSQGTLVTVSS :: 45.6
CNG-HSA-109 (VHH) VHH: KVQLVESGGGLVQPGNSLRLSCAASGFTFGSFGMSWVRQAPGKGPEWVSSISGSGSDTLYADSVKGRFTISRDNSKNTLYLQMNSLRPEDTAVYYCTIGGSLSRSSQGTLVTVSS :: 11.9
CNG-HSA-114 (VHH) VHH: KVQLVESGGGLVQPGNSLRLSCAASGFTFSSFGMSWVRQAPGKGLEWVSSISGSGSDTLTADSVKGRFTISRDNSKNTLYLQMNSLRAEDTAVYYCTIGGSLVRSSQGTLVTVSS :: 17.5
CNG-HSA-102 (VHH) VHH: KVQLLESGGGLVQPGGSLRLSCAASGFTFSSFGMSWVRQAPGKGLEWVSSISGSGSDTLYADSVRGRFTISRDNSKNTLYLQMNSLRPEDTAVYYCTIGGSLSPSSQGTLVTVSS :: 41.4

The binder CNG-HSA-117 (VHH) VHH: KVQLVESGGGLVQPGNSLRLSCAASGFTFSSFGMSWVRQAPGKGLEWVSSISGSGSDTLYADSVKGRFTISRDNSKNTLYLQMNSLRAEDTAVYYCTIGGSLTRSSQGTLVTVSS showed Kd equal to 44.8
